# method_description: yeast display, Sf9 membrane polyspecificity reagent, FACS + sequencing; frameworks hold sequencing errors
value_type: polyreactivity (PSR sort gate)

[
  {
    "seq_string": "QVQLVESGGGLVQAGGSLRISCAASGFTFSAYAMGWYRQAPGKERELVAAISGSGGRTYYADSVKGRFTISRDNAKNTVYLQMNSLKPEDTAVYYCATSTAGGRETVSQYRYYWGHGTQVTVSS",
    "measured": "high polyreactivity"
  },
  {
    "seq_string": "QVQLVESGGGLVQAGGSLRLSCAASGSTFKYYAMGWYRQATGKERELLAAITWRGGSTYYADSVKGRFTISRDNAKNSVYLLMKSLKPEDTAVYYCARQRYYGLRTLMEHWGQGTQVTVSS",
    "measured": "high polyreactivity"
  }
]

----------
# method_description: yeast display, Sf9 membrane polyspecificity reagent, FACS + sequencing; frameworks hold sequencing errors
value_type: polyreactivity (PSR sort gate)

[
  {
    "seq_string": "QVQLVESGGGLVQAGGSLRLSCAASGRIFTSNAMGWYSQAPGKERELVAAITKSGGSTYYADSVKGRFTISRDNAKNTVYLQMNSLKPEVTAVYYCSAYPTSRYKYEYWGQGNQVTVSS",
    "value_type": "polyreactivity (PSR sort gate)",
    "measured": "high polyreactivity"
  },
  {
    "seq_string": "QVQLVESGGGLVQAGGSLRLSCAASGRIFQYYVMGWYRQAPGKERELVAAIRSGGTTNYADSVKGRFTISRDNAKNTVYLQMNSLKPEDTAVYYCNARYRNTFYTRRYAYWGQGTQVTVSS",
    "value_type": "polyreactivity (PSR sort gate)",
    "measured": "high polyreactivity"
  },
  {
    "seq_string": "QVQLVESGGGLVQAGGSLRLSCAASGIIFYPYAMGWYRQAPGKERELVAAISIGGGSTYYADSVKGRFTISRDYAKNTVYLQMNSLKPEDTAVYYFAAGTPYGILGFYYWGQGTQVTVSS",
    "value_type": "polyreactivity (PSR sort gate)",
    "measured": "low polyreactivity"
  },
  {
    "seq_string": "QVQLVESGGGLFQAGGSLSLSCAASGFIFYTNAMGWYRQAPGKERELVATITTSGGRTYYADSVKGRFTISRDNAKNTVFLQMNSLKPEDTAVDYCATRYVVIEYDYWGQGTQVTVSS",
    "value_type": "polyreactivity (PSR sort gate)",
    "measured": "low polyreactivity"
  }
]

----------
# method_description: yeast display, Sf9 membrane polyspecificity reagent, FACS + sequencing; frameworks hold sequencing errors
value_type: polyreactivity (PSR sort gate)

[
  {
    "seq_string": "QVQLVESGGGLVQAGGSLRLSFAASGSIFPSYAMVWYRQAPGKERELVARISSGDDSTYYADSVKGRFTISRDNAKNTVYLQMNSLKPEDNAVYYCAADYPDVVYLEYDYWGQGTQVTVSS",
    "value_type": "polyreactivity (PSR sort gate)",
    "measured": "low polyreactivity"
  },
  {
    "seq_string": "QVQLVESGGGLVQAGGSLRLSCAASGITFSGYDMGWYRQAPWKERELVASSTYYADSVKGRFTISRDNAKNTVYLQMNSLKPEDTAVYYCAADSPGDFGGYGFDYWGQGTQVTVSS",
    "value_type": "polyreactivity (PSR sort gate)",
    "measured": "high polyreactivity"
  },
  {
    "seq_string": "QVQLVESGGGLVQAGGSLRLSCAASGFIFSGNAMGWYRQAPGKERELVATITTGGTTKYADSVKGRFTISRDNAKNTVYLQMNSLKPEDTAVYYFAKSWSYWYQYYYWGQGTQVTVSS",
    "value_type": "polyreactivity (PSR sort gate)",
    "measured": "low polyreactivity"
  },
  {
    "seq_string": "QVQLVDSGGGLVQAGGSLRLSCAASGRTFRTNAMGWYRQAPGKERELVAAISSNGGTTYYADSVKGRFTISRDNAKNTVYLQMNSLKPEDTAVYYCNIESQYLWPEFDYWGQGTQVTVSS",
    "value_type": "polyreactivity (PSR sort gate)",
    "measured": "low polyreactivity"
  },
  {
    "seq_string": "QVQLVESGGGLVQAGGSLRLSCAASGRTFGYYAMGWYRQAPGKERELVAAISNSGGRTYYADSLKGRFTISRDNAKNTVYLQMNSLKPEDTAVYYCAAVVSYRFDYWGQGTQVTVSS",
    "value_type": "polyreactivity (PSR sort gate)",
    "measured": "high polyreactivity"
  },
  {
    "seq_string": "QVQLVESGGGLVQAGGILRLSCAASGSIFRVYAMGWYRQAPGKERELVAGITSTGTRTYYADSVKGRFTISRDNAKNPVSLQKNSLKPEDTAVYYCAARDTYRKAYYYWGHGTQVTVSS",
    "value_type": "polyreactivity (PSR sort gate)",
    "measured": "high polyreactivity"
  },
  {
    "seq_string": "QVQLVESGGGLVQAGGSLRLSCAASGFIFTANAMGWYRQAPGKERELVAAINWSDGGTYYADSVKGRFTISRDNAKNTVYLQMNSLKPEDTAVYYCNAQWAWTYYYWGQGTQVTVSS",
    "value_type": "polyreactivity (PSR sort gate)",
    "measured": "low polyreactivity"
  },
  {
    "seq_string": "QVQLVESGGGLVQAGGSLRLSCAASGSTFDYYSMGWYRQAPGKERELVAAISYSGSRTYYADSVKGRFTISRDNAKNTVYLQMNSLKPEDTAVYYCAARRGYVKGKTYDYWGQGTQVTVSS",
    "value_type": "polyreactivity (PSR sort gate)",
    "measured": "high polyreactivity"
  },
  {
    "seq_string": "QVQLVESGRGLVQAGGSLRLICAASGNIFWYNAMGWYRQAPGKERELVAAINWSGGSTYYADSVKGRFRISRDNAKNTVYLEMNSLKPEDTAVYYCYAEWYDGDALQWVEYWGQGTQVTVSS",
    "value_type": "polyreactivity (PSR sort gate)",
    "measured": "high polyreactivity"
  },
  {
    "seq_string": "QVQLVESGGGLVQAGGSLRLSCAASGFTFGVYTMGWYRQAPGKETELVASISWDGGSTYYADSVKGRFTISRDNAKNTVYLQMNSLKPEDTAVYYCAKGSSFYYGYDYWGQGTQVTVSS",
    "value_type": "polyreactivity (PSR sort gate)",
    "measured": "low polyreactivity"
  }
]
